- System: HCT-116 (Colorectal Carcinoma)
- testDetails: combination Emax (second highest fraction inhibited in the dose matrix, 72 h); higher = more inhibition; extreme values may be limits of the assay
experimentalReadout: combination Emax
Returns: the value as a bare number; no unit string appended.

Example results:
compound: CN(CCO)CC[C@H](CSc1ccccc1)Nc1ccc(S(=O)(=O)NC(=O)c2ccc(N3CCC([C@@H](O)c4ccccc4-c4ccc(Cl)cc4)CC3)cc2)cc1S(=O)(=O)C(F)(F)F [AZD4320] + Nc1ccn([C@@H]2O[C@H](CO)[C@@H](O)C2(F)F)c(=O)n1 [Gemcitabine] (first compound max 1 µM, 7x7, partner max 0.3 µM)
measured: 0.899

compound: Cc1c2c(nn1C)CSCc1cc(n(C)n1)CSc1cc(c3ccccc3c1)OCCCc1c(C(=O)O)n(C)c3c-2c(Cl)ccc13 [AZD5991] + C1CN(CCC1(C(=O)N[C@@H](CCO)C2=CC=C(C=C2)Cl)N)C3=NC=NC4=C3C=CN4 [Capivasertib] (first compound max 1 µM, 7x7, partner max 3 µM)
measured: 0.24

Turning to the following compound.
Query: So what's the measured combination Emax for this one? Cc1c2c(nn1C)CSCc1cc(n(C)n1)CSc1cc(c3ccccc3c1)OCCCc1c(C(=O)O)n(C)c3c-2c(Cl)ccc13 [AZD5991] + C=CCn1c(=O)c2cnc(Nc3ccc(N4CCN(C)CC4)cc3)nc2n1-c1cccc(C(C)(C)O)n1 [AZD1775] (first compound max 1 µM, partner max 1 µM)
Response: 0.641

----------
- Tested on: FU-OV-1 (Ovarian Carcinoma)
- testDetails: combination Emax (second highest fraction inhibited in the dose matrix, 72 h); higher = more inhibition; extreme values may be limits of the assay
experimentalReadout: combination Emax
Response field accepts a number only; no unit should be typed.

Query: Please provide the recorded combination Emax for NC1(C(=O)N[C@@H](CCO)c2ccc(Cl)cc2)CCN(c2ncnc3[nH]ccc23)CC1 [Capivasertib] + CCN(CCO)CCCOc1ccc2c(Nc3cc(CC(=O)Nc4cccc(F)c4)[nH]n3)ncnc2c1 [AZD2811] (first compound max 10 µM, 7x7, partner max 1 µM) , tested on FU-OV-1 (Ovarian Carcinoma).
Response: 0.268

----------
Listing of entries alongside the reported combination Emax.
- Test system: ETK-1 (Biliary Tract Carcinoma)
- testDetails: combination Emax (second highest fraction inhibited in the dose matrix, 72 h); higher = more inhibition; extreme values may be limits of the assay
Lab note: write the figure by itself, no unit.

compound: CC1(C)CCC(CN2CCN(c3ccc(C(=O)NS(=O)(=O)c4ccc(NCC5CCOCC5)c([N+](=O)[O-])c4)c(Oc4cnc5[nH]ccc5c4)c3)CC2)=C(c2ccc(Cl)cc2)C1 [Venetoclax] + Cn1cnc2c(F)c(Nc3ccc(Br)cc3Cl)c(C(=O)NOCCO)cc21 [Selumetinib] (first compound max 1 µM, 7x7, partner max 3 µM)
measured: 0.165
//
compound: Cc1c2c(nn1C)CSCc1cc(n(C)n1)CSc1cc(c3ccccc3c1)OCCCc1c(C(=O)O)n(C)c3c-2c(Cl)ccc13 [AZD5991] + C[C@@H](Nc1cc(F)cc(F)c1)c1cc(C(=O)N(C)C)cc2c(=O)cc(N3CCOCC3)oc12 [AZD8186] (first compound max 1 µM, 7x7, partner max 3 µM)
measured: 0.306

Query: Name the recorded combination Emax for NC1(C(=O)N[C@@H](CCO)c2ccc(Cl)cc2)CCN(c2ncnc3[nH]ccc23)CC1 [Capivasertib] + COc1nnc2ccc(N3CCC(c4ccc(OCCN5CCN(C)C(=O)[C@H]5C)cc4)CC3)nn12 [AZD5153] (first compound max 10 µM, 7x7, partner max 1 µM) .
Response: 0.503

Data origin, for the record: the supplement of paper PMC11061612
